system: OVCAR-4; test: Ovarian cancer cell drug susceptibility (Alamar blue), OVCAR-4; format: cell-based, human; settings: 44 h + 4 h Alamar blue
METRIC_NAME: EC50 (µM)
Report only the number, with the unit µM understood.

Req: For N.N.[Cl][Pt][Cl] [Cisplatin] , what is its reported EC50?
Resp: 30.3
